target: T1, human PCSK9 variant b (human, UniProt Q8NBP7 31-692); test: ProteOn SPR, captured antibody, pH 7.6;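 note: antibodies captured via anti-human Fc on a GLC sensor chip, PCSK9 binding sensorgrams fitted to a 1:1 Langmuir model giving on and off rates, with KD derived from them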
T1 construct: also called Human PCSK9 var B; hPCSK9b
T1 sequence (Q8NBP7 other isoform, or with tags, fused parts or gaps mutant limits assumed): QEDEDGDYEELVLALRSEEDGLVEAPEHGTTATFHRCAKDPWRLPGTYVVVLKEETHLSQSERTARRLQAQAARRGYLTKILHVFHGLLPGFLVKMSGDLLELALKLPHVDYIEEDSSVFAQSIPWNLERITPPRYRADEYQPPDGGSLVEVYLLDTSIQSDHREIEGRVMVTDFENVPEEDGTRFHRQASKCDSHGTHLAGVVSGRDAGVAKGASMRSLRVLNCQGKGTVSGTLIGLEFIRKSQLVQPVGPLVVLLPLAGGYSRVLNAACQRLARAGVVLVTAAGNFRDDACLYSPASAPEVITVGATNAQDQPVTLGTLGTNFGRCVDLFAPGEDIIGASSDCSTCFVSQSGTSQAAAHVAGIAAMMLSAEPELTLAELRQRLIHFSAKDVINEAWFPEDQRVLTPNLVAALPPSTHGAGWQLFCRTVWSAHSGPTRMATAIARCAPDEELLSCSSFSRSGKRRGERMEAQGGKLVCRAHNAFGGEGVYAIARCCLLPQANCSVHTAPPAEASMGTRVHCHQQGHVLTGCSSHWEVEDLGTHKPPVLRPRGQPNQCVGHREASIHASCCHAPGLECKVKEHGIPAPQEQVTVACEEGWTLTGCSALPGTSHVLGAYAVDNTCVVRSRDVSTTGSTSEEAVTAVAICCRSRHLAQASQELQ
pKd: −log10 of the molar value.
Here, each record is paired with measured pKd data.
reported-metric: pKd

INSERT INTO measurements (binder, reported_metric, assay_result) VALUES
  ('CL-148489 (antibody, V domains shown, Human antibody with a kappa light chain) VH: EVQLVESGGGLVQPGRSLRLSCTASGFTFADYVMHWVRQTPGKGLEWVSGISWNSYSINYADSVKGRFTISRDNAQNSLYLQMNSLRAEDTALYFCAKDITYDLLTGYNYNYGLDVWGQGTTVTVSS VL: DIVMTQTPLSLSVTPGQPASISCRSSQSLLHSDGKTYLYWYLQKPGQPPQLLIYEVSNRFSGVPDRFSGSGSGTDFTLKISRVEAEDVGLYYCMQSIQLPLTFGGGTKVEIK', 'pKd', 9.71),
  ('CL-274698 (antibody, V domains shown, Human antibody with a kappa light chain, derived from a PCSK9 knockout mouse) VH: QVQLQESGPGLVKPSGTLSLTCAVSGGSISSSKWWSWVRQPPGKGLEWIGETHYSGSTNYNPSLKSRVTISVDKSKNQFSLKLRSVTAADTAVYYCARVGATENFWGQGTLVTVSS VL: EIVLTQSPATLSLSPGERATLSCRASQSVFRYLAWYQQKPGQAPRLLIYDASTRATDIPARFSGSGSGTDFTLTISSLEPEDFAVYYCQQRSNWPPTFGQGTKVEIK', 'pKd', 10.04),
  ('CL-148219 (antibody, V domains shown, NLT motif in heavy chain framework 3 confirmed N-glycosylated by mass spectrometry, Human antibody, captured through anti-human Fc in the SPR assay) VH: QVHLQESGPGLVKPSETLSLTCTVSGGSISSYYWSWIRQYPGKGLEWIGYISYSGSSNYNPSLKRRVTISRDTSKNQFSLNLTSVIAADTAVYYCARNLMIRGAYGMDVWGQGTTVTVSS VL: DTVMTQSPLSLPVTPGEPASISCRSSQSLLHSNGYNYLDWYLQKAGQSPQLLIYLGSNRASGVPDRFSGSVSGTDFTLKISRVEAEDVGIYYCMQALQTPFTFGPGTKVDIK', 'pKd', 9.67),
  ('CL-148219 QLT mutant (antibody, V domains shown) VH: QVHLQESGPGLVKPSETLSLTCTVSGGSISSYYWSWIRQYPGKGLEWIGYISYSGSSNYNPSLKRRVTISRDTSKNQFSLQLTSVIAADTAVYYCARNLMIRGAYGMDVWGQGTTVTVSS VL: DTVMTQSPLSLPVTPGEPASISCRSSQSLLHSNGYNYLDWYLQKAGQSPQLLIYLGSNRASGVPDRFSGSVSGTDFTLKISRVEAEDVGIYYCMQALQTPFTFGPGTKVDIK', 'pKd', 9.59);
